Reported growth inhibition values follow for various compounds
experiment: NCI Yeast Anticancer Drug Screen. Data for the mec2-1 strain (AID 157)
assay_conditions: S. cerevisiae mec2-1 strain, at 50.0 µM (retest, dose inferred, filed as 5.0), active compounds read high
About 79,000 compounds went through this panel and 15% of them were active in at least one assay; those are over-represented in the sample as a whole.
value_kind: growth inhibition (%)

{"columns": ["compound", "value_kind", "recorded_result"],
 "data": [
  ["COC1=C(C)C(=O)c2c(c(COC(N)=O)c3n2CC2C3N2C)C1=O (stereo not given)", "growth inhibition", 52],
  ["C[CH2][Sn]1([CH2]C)[O]C2C(O)OC(CO)C(O)C2[O]1 (stereo not given)", "growth inhibition", 75],
  ["NP(N)(=O)Nc1ccccc1", "growth inhibition", -2],
  ["ClCCN(CCCl)c1ccc(C=NCCCCN=Cc2ccc(N(CCCl)CCCl)cc2)cc1", "growth inhibition", 47],
  ["CCOP(=O)(O)C(Nc1ccc(N=Nc2ccccc2)cc1)c1cccc(C(Nc2ccc(N=Nc3ccccc3)cc2)P(=O)(O)OCC)c1 (stereo not given)", "growth inhibition", 46],
  ["O=C(CCl)c1ccc(O)cc1", "growth inhibition", 98],
  ["CC(=O)Nc1ccccc1[As](O[As](c1ccccc1)c1ccccc1NC(C)=O)c1ccccc1 (stereo not given)", "growth inhibition", 100],
  ["CC(=O)O/C(=C1\\C[C@H]2[C@@H]3CC=C4C[C@@H](OC(C)=O)CC[C@]4(C)[C@H]3CC[C@]2(C)C1=O)C(F)(F)F", "growth inhibition", 3],
  ["CCCN(CCC)c1c([N+](=O)[O-])cc(S(N)(=O)=O)cc1[N+](=O)[O-]", "growth inhibition", 15],
  ["C[C@]12CCC(=O)C=C1CC[C@@H]1C2CC[C@@]2(C)C1CC[C@@H]2OC(=O)C12OC1CCC2=O (stereo not given in full)", "growth inhibition", 86],
  ["O=[N+]([O-])c1ccc(N2CCC(CCCC3CCN(c4ccc([N+](=O)[O-])cc4[N+](=O)[O-])CC3)CC2)c([N+](=O)[O-])c1", "growth inhibition", 99],
  ["Cc1cc[n+](C2=C(Nc3ccc(Cl)cc3Cl)C(=O)c3ccccc3C2=O)cc1", "growth inhibition", 58],
  ["[CH3][Sn]([Br])([Br])[CH2]CCCBr", "growth inhibition", 94],
  ["CCc1cccc(C(C)C)c1NC1=C([n+]2ccc(C)cc2)C(=O)c2ccccc2C1=O", "growth inhibition", 65],
  ["N#CN(Cc1ccccc1)C(c1ccccc1)(c1ccccc1)c1ccccc1.[Cl][Sn]([c]1ccccc1)([c]1ccccc1)[c]1ccccc1", "growth inhibition", 94],
  ["CCc1ccc([O-])c(C=NCCCN(C)CCCN=Cc2cc(C)ccc2[O-])c1.[Co+3].[N-]=[N+]=[N-]", "growth inhibition", 15],
  ["CC#C[P+](c1ccccc1)(c1ccccc1)c1ccccc1", "growth inhibition", 87],
  ["CSC(=Nc1ccccc1)N(c1ccccc1)c1nc(=[N+](C)C)ss1", "growth inhibition", 99],
  ["COC12C(COC(C)=O)C3=C(C(=O)C(C)=C(N4CCCCC4)C3=O)N1CC1NC12 (stereo not given)", "growth inhibition", 95],
  ["CN(C)CC1CCCCC1=O (stereo not given)", "growth inhibition", -24],
  ["C[N+](C)(C)CC1CCCC(C[N+](C)(C)C)C1=O (stereo not given)", "growth inhibition", -19],
  ["CC(=O)Nc1ccc(/C=N/N=C(/N)N[N+](=O)[O-])cc1", "growth inhibition", -2],
  ["CCOC(=O)C1CC12c1ccccc1-c1ccccc12 (stereo not given)", "growth inhibition", 29],
  ["CCN(CCCl)c1cc(CN(C)C)cc(NC(=O)c2ccc(C(=O)Nc3cccc(N(CCCl)NN)c3)cc2)c1", "growth inhibition", 98],
  ["CC(C)CC(NC(=O)C(N)C(C)C)C(=O)NC(CCCCN)C(=O)Nc1ccc(N(CCCl)CCCl)cc1 (stereo not given)", "growth inhibition", 22],
  ["CCCCCCCCCCCCCCCCCC(=O)[O][Hg][c]1ccccc1", "growth inhibition", 98],
  ["CCCCN1C(=O)C2C(C1=O)C1(Cl)C(Cl)=C(Cl)C2(Cl)C1(Cl)Cl (stereo not given)", "growth inhibition", 99],
  ["COc1ccc(C2N(Cc3ccc(N(CCCl)CCCl)cc3C)CCCN2Cc2ccc(N(CCCl)CCCl)cc2C)cc1", "growth inhibition", 96],
  ["O=[N+]([O-])O.O=[N+]([O-])O.[NH-]C1CCCCC1[NH-].[Pt+2] (stereo not given)", "growth inhibition", 95],
  ["O=[N+]([O-])c1cc([N+](=O)[O-])c2cccnc2c1O", "growth inhibition", -10],
  ["CC(=O)OC1C2(CC3N4C(=O)C5(CO)SSC4(CC31O)C(=O)N5C)OC(C)C(C)(C)C2=O (stereo not given)", "growth inhibition", 100],
  ["CCN(CC)CC(=O)O[C@]1(CC)C(=O)OCc2c1cc1n(c2=O)Cc2cc3ccccc3nc2-1", "growth inhibition", 98],
  ["N#CC(C#N)=Cc1cc(Cl)ccc1O", "growth inhibition", 44],
  ["C(CCC[Te][Te]CCCCCCOC1CCCCO1)CCOC1CCCCO1 (stereo not given)", "growth inhibition", 17],
  ["O=C1NC(=S)NC(=O)C1=C/C=C/c1ccccc1", "growth inhibition", 32],
  ["O=c1c[n+](-c2ccc[nH+]c2)[nH]o1.[Cl][Hg][Cl]", "growth inhibition", 100],
  ["COc1cc(Br)cc(/C=C(\\C)[N+](=O)[O-])c1O", "growth inhibition", 95],
  ["CCOP(=O)(Oc1ccc([N+](=O)[O-])cc1)c1ccccc1C(C)C (stereo not given)", "growth inhibition", 70],
  ["CN(C)CCN(C)P12(Oc3ccccc3O1)Oc1c(Cl)c(Cl)c(Cl)c(Cl)c1O2", "growth inhibition", 14],
  ["C[C@]12CCC3[C@@H](CC[C@@H]4c5nonc5CC[C@]34C)C1CCC2=O (stereo not given in full)", "growth inhibition", -11]
]}
